Quick reference: pIC50 of the listed items.
Target: Tyrosine-protein phosphatase non-receptor type 1 (Homo sapiens, UniProt P18031)
Sequence (P18031 whole entry): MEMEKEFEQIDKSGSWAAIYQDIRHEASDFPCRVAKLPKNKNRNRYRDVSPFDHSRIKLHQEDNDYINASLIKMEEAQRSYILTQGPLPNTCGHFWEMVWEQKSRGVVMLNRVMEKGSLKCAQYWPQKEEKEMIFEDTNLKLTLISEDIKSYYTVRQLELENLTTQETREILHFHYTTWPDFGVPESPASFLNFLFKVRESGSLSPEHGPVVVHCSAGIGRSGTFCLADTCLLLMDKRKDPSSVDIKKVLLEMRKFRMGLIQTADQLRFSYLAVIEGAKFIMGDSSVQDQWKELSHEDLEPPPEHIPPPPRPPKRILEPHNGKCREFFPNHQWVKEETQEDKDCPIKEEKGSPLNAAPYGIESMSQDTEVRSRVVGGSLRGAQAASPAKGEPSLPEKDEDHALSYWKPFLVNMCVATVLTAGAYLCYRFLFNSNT
Assay: Inhibition of recombinant PTP1B
Reminder that pIC50 is minus the log10 of a molar concentration.

Consider the following illustrative entries.
[
  {
    "Input smiles": "O=C(O[C@H]1[C@@H](OC(=O)c2ccccc2)[C@@H](C(=O)O)O[C@@H](C2=CC(=O)c3ccccc3C2=O)[C@@H]1OC(=O)c1ccccc1)c1ccccc1",
    "pIC50": 5.95
  },
  {
    "Input smiles": "COc1ccc(OC)c([C@@H]2O[C@H](CNC(=O)c3ccccc3)[C@@H](OC(C)=O)[C@H](OC(=O)c3ccccc3)[C@H]2OC(=O)c2ccccc2)c1",
    "pIC50": 5.34
  },
  {
    "Input smiles": "COc1ccc(OC)c([C@@H]2O[C@H](CNC(=O)c3ccccc3C(=O)O)[C@@H](OC(=O)c3ccccc3)[C@H](OC(=O)c3ccccc3)[C@H]2OC(=O)c2ccccc2)c1",
    "pIC50": 5.61
  }
]

Data request, read-out pIC50, for "O=C1C=CC(=O)C([C@@H]2O[C@H](CNC(=O)c3ccccc3)[C@@H](O)[C@H](OC(=O)c3ccccc3)[C@H]2OC(=O)c2ccccc2)=C1"
5.28

Data request, read-out pIC50, for "CC(=O)O[C@H]1[C@@H](OC(C)=O)[C@@H](C(=O)O)O[C@@H](C2=CC(=O)c3ccccc3C2=O)[C@@H]1OC(C)=O"
4.78

Data request, read-out pIC50, for "COc1ccc(OC)c([C@@H]2O[C@H](CNC(=O)c3ccccc3)[C@@H](O)[C@H](OC(=O)c3ccccc3)[C@H]2OC(=O)c2ccccc2)c1"
5.38

---

Biological target: Tyrosine-protein phosphatase non-receptor type 1 (Homo sapiens, UniProt P18031)
Assay: Inhibition of recombinant PTP1B
Measurement kind: pIC50
Reminder that pIC50 is minus the log10 of a molar concentration.

Which pIC50 is reported with Tyrosine-protein phosphatase non-receptor type 1 (Homo sapiens, UniProt P18031) for this entry: "CC(=O)O[C@H]1[C@@H](OC(C)=O)[C@@H](C(=O)O)O[C@@H](C2=CC(=O)C=CC2=O)[C@@H]1OC(C)=O" ?
4.56

Which pIC50 is reported with Tyrosine-protein phosphatase non-receptor type 1 (Homo sapiens, UniProt P18031) for this entry: "COc1cc([C@@H]2O[C@H](CNC(=O)c3ccccc3C(=O)O)[C@@H](OC(=O)c3ccccc3)[C@H](OC(=O)c3ccccc3)[C@H]2OC(=O)c2ccccc2)c(OC)c2ccccc12" ?
6.11

Which pIC50 is reported with Tyrosine-protein phosphatase non-receptor type 1 (Homo sapiens, UniProt P18031) for this entry: "CC(=O)O[C@@H]1[C@@H](OC(C)=O)[C@H](C2=CC(=O)c3ccccc3C2=O)O[C@H](C(=O)O)[C@H]1OC(C)=O" ?
4.80

Which pIC50 is reported with Tyrosine-protein phosphatase non-receptor type 1 (Homo sapiens, UniProt P18031) for this entry: "CC(=O)O[C@@H]1[C@@H](OC(C)=O)[C@H](C2=CC(=O)C=CC2=O)O[C@H](C(=O)O)[C@H]1OC(C)=O" ?
4.69

Which pIC50 is reported with Tyrosine-protein phosphatase non-receptor type 1 (Homo sapiens, UniProt P18031) for this entry: "COc1cc([C@@H]2O[C@H](CN=[N+]=[N-])[C@@H](OC(=O)c3ccccc3)[C@H](OC(=O)c3ccccc3)[C@H]2OC(=O)c2ccccc2)c(OC)c2ccccc12" ?
5.63

---

Molecular target: Tyrosine-protein phosphatase non-receptor type 1 (Homo sapiens) (UniProt P18031)
Sequence (whole entry): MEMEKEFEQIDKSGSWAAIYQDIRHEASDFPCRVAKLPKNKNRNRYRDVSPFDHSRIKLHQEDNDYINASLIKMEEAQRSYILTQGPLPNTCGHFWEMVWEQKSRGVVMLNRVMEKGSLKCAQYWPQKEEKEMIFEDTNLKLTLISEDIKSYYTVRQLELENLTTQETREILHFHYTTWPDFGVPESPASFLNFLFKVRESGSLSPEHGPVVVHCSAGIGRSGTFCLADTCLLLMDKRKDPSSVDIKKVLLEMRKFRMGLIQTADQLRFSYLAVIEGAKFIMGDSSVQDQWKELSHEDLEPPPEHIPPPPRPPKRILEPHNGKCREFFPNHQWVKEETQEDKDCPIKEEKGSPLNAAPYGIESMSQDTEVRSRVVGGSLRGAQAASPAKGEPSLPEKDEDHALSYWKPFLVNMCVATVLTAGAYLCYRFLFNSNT
Experiment: Inhibition of recombinant PTP1B at 20 ug/mL
Quick reference: inhibition of the listed items.
Number only, in %; omit the unit.

Consider the following illustrative entries.
[
  {
    "Input smiles": "CC(=O)O[C@@H]1[C@@H](OC(C)=O)[C@H](C2=CC(=O)C=CC2=O)O[C@H](CNC(=O)c2ccccc2)[C@H]1OC(C)=O",
    "Reading": 26.6
  },
  {
    "Input smiles": "CC(=O)O[C@H]1[C@@H](OC(C)=O)[C@@H](C(=O)O)O[C@@H](C2=CC(=O)c3ccccc3C2=O)[C@@H]1OC(C)=O",
    "Reading": 88.2
  },
  {
    "Input smiles": "COc1ccc(OC)c([C@@H]2O[C@H](CNC(=O)c3ccccc3)[C@@H](O)[C@H](OC(=O)c3ccccc3)[C@H]2OC(=O)c2ccccc2)c1",
    "Reading": 94.9
  },
  {
    "Input smiles": "CC(=O)O[C@@H]1[C@@H](OC(C)=O)[C@H](C2=CC(=O)C=CC2=O)O[C@H](C(=O)O)[C@H]1OC(C)=O",
    "Reading": 84.7
  },
  {
    "Input smiles": "COc1ccc(OC)c([C@@H]2O[C@H](CNC(=O)c3ccccc3)[C@@H](OC(C)=O)[C@H](OC(=O)c3ccccc3)[C@H]2OC(=O)c2ccccc2)c1",
    "Reading": 83.4
  }
]

Data request, read-out inhibition, for "CC(=O)O[C@H]1[C@@H](OC(C)=O)[C@@H](C(=O)O)O[C@@H](C2=CC(=O)C=CC2=O)[C@@H]1OC(C)=O"
70.3

Data request, read-out inhibition, for "COc1cc([C@@H]2O[C@H](CNC(=O)c3ccccc3C(=O)O)[C@@H](OC(=O)c3ccccc3)[C@H](OC(=O)c3ccccc3)[C@H]2OC(=O)c2ccccc2)c(OC)c2ccccc12"
92.1

Data request, read-out inhibition, for "COc1ccc(OC)c([C@@H]2O[C@H](CNC(=O)c3ccccc3)[C@@H](OC(C)=O)[C@H](OC(C)=O)[C@H]2OC(C)=O)c1"
12.1

---

Target: Tyrosine-protein phosphatase non-receptor type 1 (Homo sapiens) (UniProt P18031)
Sequence (whole entry): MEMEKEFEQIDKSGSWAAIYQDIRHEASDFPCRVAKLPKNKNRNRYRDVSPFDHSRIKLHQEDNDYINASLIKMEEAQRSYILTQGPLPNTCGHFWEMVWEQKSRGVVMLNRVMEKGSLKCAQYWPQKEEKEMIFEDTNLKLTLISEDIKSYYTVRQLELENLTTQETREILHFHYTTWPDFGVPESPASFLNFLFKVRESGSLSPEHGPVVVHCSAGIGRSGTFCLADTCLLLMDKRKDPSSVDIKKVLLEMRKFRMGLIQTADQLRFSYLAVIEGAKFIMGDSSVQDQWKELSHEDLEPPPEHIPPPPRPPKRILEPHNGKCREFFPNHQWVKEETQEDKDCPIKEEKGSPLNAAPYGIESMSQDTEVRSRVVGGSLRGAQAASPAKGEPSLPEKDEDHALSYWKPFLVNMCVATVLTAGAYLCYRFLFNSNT
Assay: Inhibition of recombinant PTP1B at 20 ug/mL
Quick reference: inhibition of the listed items.
Number only, in %; omit the unit.

[
  {
    "Input smiles": "COc1ccc(OC)c([C@@H]2O[C@H](COC(C)=O)[C@H](NC(=O)c3ccccc3C(=O)O)[C@H](OC(C)=O)[C@H]2OC(C)=O)c1",
    "inhibition (%)": 49.5
  },
  {
    "Input smiles": "COc1cc([C@@H]2O[C@H](CN=[N+]=[N-])[C@@H](OC(=O)c3ccccc3)[C@H](OC(=O)c3ccccc3)[C@H]2OC(=O)c2ccccc2)c(OC)c2ccccc12",
    "inhibition (%)": 96.5
  },
  {
    "Input smiles": "CC(=O)O[C@@H]1[C@@H](OC(C)=O)[C@H](C2=CC(=O)c3ccccc3C2=O)O[C@H](C(=O)O)[C@H]1OC(C)=O",
    "inhibition (%)": 83.1
  },
  {
    "Input smiles": "COc1ccc(OC)c([C@@H]2O[C@H](CNC(=O)c3ccccc3C(=O)O)[C@@H](OC(=O)c3ccccc3)[C@H](OC(=O)c3ccccc3)[C@H]2OC(=O)c2ccccc2)c1",
    "inhibition (%)": 99.7
  }
]

Data request, read-out inhibition, for "O=C(O[C@H]1[C@@H](OC(=O)c2ccccc2)[C@@H](C(=O)O)O[C@@H](C2=CC(=O)c3ccccc3C2=O)[C@@H]1OC(=O)c1ccccc1)c1ccccc1"
99.5

Data request, read-out inhibition, for "O=C1C=CC(=O)C([C@@H]2O[C@H](CNC(=O)c3ccccc3)[C@@H](O)[C@H](OC(=O)c3ccccc3)[C@H]2OC(=O)c2ccccc2)=C1"
94.1
